B1: TNNI2 (parent)
chain: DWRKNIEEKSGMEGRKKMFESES

variants of: B1; test: protein stability index of a GFP-peptide fusion (GPS, HEK-293T) (PSI 1-6); higher = more stable; details: c terminus: native;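 note: lentivirally expressed fusions sorted by FACS into six bins by GFP to DsRed ratio, PSI derived from sequencing read proportions per bin multiplied by bin number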

{"columns": ["Variant label", "protein stability index"],
 "data": [
  ["E20L", 2.33],
  ["E8R", 1.84],
  ["R15F", 1.62],
  ["D1Y", 2.24],
  ["M18A", 2.26],
  ["K9Y", 1.93],
  ["R3G", 1.61],
  ["M18T", 4.9],
  ["F19S", 5.6],
  ["E22I", 3.3],
  ["S21E", 5.2],
  ["S10Y", 2.82],
  ["W2I", 2.53],
  ["E8M", 1.5],
  ["E7D", 3],
  ["G14S", 1.63],
  ["E7R", 2.8],
  ["I6P", 3.72],
  ["E20T", 2.94],
  ["R3S", 2.04],
  ["K16G", 1.78],
  ["S23N", 4.46],
  ["K9Q", 1.68],
  ["E20I", 2.89],
  ["F19K", 5.64],
  ["E13A", 2.01],
  ["K9E", 2.13],
  ["K17Q", 2.39],
  ["E8Q", 2.17],
  ["K4A", 3.61],
  ["D1L", 1.9],
  ["R15Y", 2.15],
  ["N5P", 3.97],
  ["E13G", 3.41],
  ["S23P", 2.42],
  ["E20D", 3.65],
  ["W2E", 3.25],
  ["R3K", 2.34],
  ["K9S", 3.35],
  ["G11A", 2.57],
  ["M12P", 1.96],
  ["R15N", 2.77],
  ["E8V", 2.66],
  ["S10T", 2.47],
  ["G14W", 2.78],
  ["K16P", 2.72]
]}
